The origin of these recorded values is patent US8802700B2.

Entries and their Emax values follow.
Target: ΔF508-CFTR (Homo sapiens, UniProt P13569, DEL508-508)
Construct: expressed in transfected cells
Sequence (P13569 with tags, fused parts or gaps DEL508-508): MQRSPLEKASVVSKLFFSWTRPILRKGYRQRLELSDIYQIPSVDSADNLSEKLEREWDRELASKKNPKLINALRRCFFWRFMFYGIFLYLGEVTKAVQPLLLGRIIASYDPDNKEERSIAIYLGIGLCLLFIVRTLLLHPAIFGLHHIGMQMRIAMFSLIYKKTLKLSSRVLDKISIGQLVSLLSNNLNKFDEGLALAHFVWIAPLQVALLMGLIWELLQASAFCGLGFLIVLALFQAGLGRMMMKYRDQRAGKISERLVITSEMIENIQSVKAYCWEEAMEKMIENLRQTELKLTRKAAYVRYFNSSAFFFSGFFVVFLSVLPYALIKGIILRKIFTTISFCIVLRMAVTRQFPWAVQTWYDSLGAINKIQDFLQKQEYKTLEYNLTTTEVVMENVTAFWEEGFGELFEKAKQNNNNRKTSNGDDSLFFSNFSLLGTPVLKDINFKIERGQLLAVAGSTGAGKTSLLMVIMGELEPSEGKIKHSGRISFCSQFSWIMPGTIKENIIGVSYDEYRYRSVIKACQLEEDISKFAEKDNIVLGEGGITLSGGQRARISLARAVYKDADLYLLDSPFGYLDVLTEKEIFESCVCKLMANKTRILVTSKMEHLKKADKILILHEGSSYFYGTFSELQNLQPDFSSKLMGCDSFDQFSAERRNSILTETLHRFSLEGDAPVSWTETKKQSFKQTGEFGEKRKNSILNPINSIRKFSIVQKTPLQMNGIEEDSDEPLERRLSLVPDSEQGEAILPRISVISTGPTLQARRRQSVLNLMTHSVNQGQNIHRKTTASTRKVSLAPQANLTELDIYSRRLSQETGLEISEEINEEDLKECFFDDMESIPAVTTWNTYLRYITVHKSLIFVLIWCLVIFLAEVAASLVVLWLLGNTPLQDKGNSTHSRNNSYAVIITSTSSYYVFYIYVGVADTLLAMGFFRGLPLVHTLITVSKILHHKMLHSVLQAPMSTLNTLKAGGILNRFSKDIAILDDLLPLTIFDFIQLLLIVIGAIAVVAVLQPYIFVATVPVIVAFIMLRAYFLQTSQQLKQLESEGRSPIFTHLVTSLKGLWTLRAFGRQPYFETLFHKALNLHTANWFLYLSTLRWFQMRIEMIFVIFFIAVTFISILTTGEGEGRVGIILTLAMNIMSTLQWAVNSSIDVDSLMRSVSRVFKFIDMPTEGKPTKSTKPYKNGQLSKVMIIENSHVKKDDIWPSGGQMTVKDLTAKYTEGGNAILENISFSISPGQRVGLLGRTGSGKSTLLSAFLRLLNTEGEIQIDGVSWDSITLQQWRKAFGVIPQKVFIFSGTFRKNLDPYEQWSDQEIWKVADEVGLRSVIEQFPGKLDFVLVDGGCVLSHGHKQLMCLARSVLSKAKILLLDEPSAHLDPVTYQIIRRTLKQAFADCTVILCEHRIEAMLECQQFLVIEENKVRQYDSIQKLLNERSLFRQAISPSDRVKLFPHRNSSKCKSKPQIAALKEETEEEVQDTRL
Assay: Membrane potential optical assay (FRET voltage-sensor dyes, VIPR), identification of potentiator compounds
Assay type: cell-based
Conditions: Table 3; assay not given; read-out: % Activity (% Efficacy, relative efficacy)
parameter measured: Emax

[[record]]
smiles_text = "Cc1cccc2[nH]cc(C(=O)Nc3ccc(N4CC[C@@H](F)C4)cc3C(F)(F)F)c(=O)c12"
parameter_measured = "Emax"
measurement = "25 to 100%"

[[record]]
smiles_text = "CS(=O)(=O)Nc1cccc(NC(=O)c2c[nH]c3ccccc3c2=O)c1"
parameter_measured = "Emax"
measurement = "25 to 100%"

[[record]]
smiles_text = "COC(=O)c1cc(NC(=O)c2c[nH]c3ccccc3c2=O)ccc1C(C)(C)C"
parameter_measured = "Emax"
measurement = "25 to 100%"

[[record]]
smiles_text = "CC(C)(C)c1ccc(NC(=O)c2c[nH]c3ccccc3c2=O)cc1C#N"
parameter_measured = "Emax"
measurement = "25 to 100%"

[[record]]
smiles_text = "CC(C)(C)c1cc2cc[nH]c2cc1NC(=O)c1c[nH]c2ccccc2c1=O"
parameter_measured = "Emax"
measurement = "25 to 100%"

[[record]]
smiles_text = "NS(=O)(=O)c1ccccc1NC(=O)c1c[nH]c2ccccc2c1=O"
parameter_measured = "Emax"
measurement = "< 25%"

[[record]]
smiles_text = "Cc1ccc(N)cc1NC(=O)c1c[nH]c2ccccc2c1=O"
parameter_measured = "Emax"
measurement = "25 to 100%"

[[record]]
smiles_text = "O=C(Nc1ccccc1-c1cc(F)cc(F)c1)c1c[nH]c2ccccc2c1=O"
parameter_measured = "Emax"
measurement = "25 to 100%"

[[record]]
smiles_text = "N#Cc1cc(Cl)cc(Cl)c1NC(=O)c1c[nH]c2ccccc2c1=O"
parameter_measured = "Emax"
measurement = "< 25%"

[[record]]
smiles_text = "CS(=O)(=O)Nc1cc(NC(=O)c2c[nH]c3ccccc3c2=O)cc(C(F)(F)F)c1"
parameter_measured = "Emax"
measurement = "25 to 100%"

